Tested on: RARa:RXR (NR concentration 270 nM, RXRa partner concentration 90 nM)
measurement.protocol: PBM binding z-score (relative to random genomic background probes); higher = stronger binding; sequences stand for … in GC…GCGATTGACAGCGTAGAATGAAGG
Label rule, in plain words: PBM binding z-score of 0.7 and up is Criterion met, under 0.7 is Criterion not met.

Query: Determine whether measured PBM binding z-score meets or exceeds 0.7 for CAAACTACGTCACCGGAAGGTCAAAGTCCGCATG
Result: Criterion met

Query: Please do the same for CGAACTAGGTCATCCAGGACAGAGAATACATTGA as well.
Result: Criterion met

Query: Please do the same for ATCGAAATGTCGAAGGTGAGTATACCCACCCGAA as well.
Result: Criterion not met

Query: Please do the same for CCTATTAGTTGACCATAAGGGCAACCGCAGCTCG as well.
Result: Criterion met

Query: Please do the same for CTACCAAGGTGAACAAGGTCGCTGATTACTATTC as well.
Result: Criterion met

Query: Please do the same for CCAGACAGGTGAGTAGGTAACTCAGCCTCGATTA as well.
Result: Criterion not met

Query: Please do the same for TCTGCTAGGTGAACGATGGTCAGCTAATCTGCTA as well.
Result: Criterion not met

Query: Please do the same for CGTCAAAGTTCAAGGTAAGGTAACAGAAAGCAGC as well.
Result: Criterion met

Query: Please do the same for ATCTCTAGGTAACCAAGTTCAGGGAATGCCGAAC as well.
Result: Criterion met

Query: Please do the same for TAGCCTAGGTCATTCATGGGCCAGTATAGAAAGC as well.
Result: Criterion met

Query: Please do the same for AGAATGAGTTTAAGATCAGGGAAACAGAATACAT as well.
Result: Criterion not met

Query: Please do the same for TAGCGTAGGTCAGATCGGGCCAGTATACGCTATA as well.
Result: Criterion met

FYI, the data here is from the supplement of paper PMC6555819.
